Listing of recorded growth inhibition by entry.
# Method description: NCI Yeast Anticancer Drug Screen. Data for the bub3 strain (AID 167)
# Protocol conditions: S. cerevisiae bub3 mutant strain, at 50.0 µM, active compounds read high
About 79,000 compounds went through this panel and 15% of them were active in at least one assay; those are over-represented in the sample as a whole.
Give the value, in units of %, as a plain number.

Examples with answers:
[[record]]
compound = "COc1cc2nncc(SCc3ccc(Cl)cc3)c2cc1OC"
measurement = 15.5

[[record]]
compound = "Cc1cc(OC(=O)c2ccccc2)cc(C)c1OC(=O)c1ccccc1"
measurement = 7.15

[[record]]
compound = "CCCCc1nc(CCCC)nc(CCCC)n1"
measurement = -2.8


Problem: Returns the measured growth inhibition for the input compound. Input: C#CCOc1ccc(O)c(C(=O)OCCCOC(=O)c2cc(OCC#C)ccc2O)c1
Result: -2.1

Problem: Returns the measured growth inhibition for the input compound. Input: O=C(NC(Nc1ccc(F)cc1)(C(F)(F)F)C(F)(F)F)C(C(F)(F)F)C(F)(F)F
Result: 90.7

Problem: Returns the measured growth inhibition for the input compound. Input: COCC(=O)c1ccc(C#N)cc1
Result: 4.45

Problem: Returns the measured growth inhibition for the input compound. Input: C#CCCOC(=O)c1ccccc1OC(C)=O
Result: 7.15

Problem: Returns the measured growth inhibition for the input compound. Input: CCCCCCCC(N)=O
Result: -11.6

Problem: Returns the measured growth inhibition for the input compound. Input: CCOC(=O)Cc1nc2sc(C)c(-c3ccccc3)c2c(=O)[nH]1
Result: 17.2

Problem: Returns the measured growth inhibition for the input compound. Input: COc1ccc(C2NC(C(=O)O)Cc3c2[nH]c2ccccc32)cc1OC (configuration not stated)
Result: -4.3

Problem: Returns the measured growth inhibition for the input compound. Input: NC(N)=Nc1cccc2c1CC=CC2
Result: 2

Problem: Returns the measured growth inhibition for the input compound. Input: O=C(NCCN1CCCCC1)C(O)(C1CCCCC1)C1CCCCC1
Result: 9.75

----------
# Method description: NCI Yeast Anticancer Drug Screen. Data for the rad50 strain (AID 155);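 further: 0% = growth of vehicle-only cultures of the same strain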
# Protocol conditions: S. cerevisiae rad50 strain growth inhibition; at 50.0 µM; active compounds read high
The panel holds about 79,000 compounds, 15% with a hit somewhere; the sample as a whole holds those more often.
Listing of recorded growth inhibition by entry.
Give the value, in units of %, as a plain number.

[[record]]
compound = "COc1cc2c(cc1OC)C1(CCBr)C3CC4C(=CCOC5CC(=O)N2C1C54)CN3C(=O)Cc1ccccc1 (stereo not given)"
experimental_readout = "growth inhibition"
unit_descriptor = "%"
measurement = 27.8

[[record]]
compound = "C/C(CCc1ccccc1)=N\\Nc1ccc([N+](=O)[O-])cc1[N+](=O)[O-]"
experimental_readout = "growth inhibition"
unit_descriptor = "%"
measurement = -31.9

[[record]]
compound = "O=C(O)c1ncn2c(=O)n(CCCl)nnc12"
experimental_readout = "growth inhibition"
unit_descriptor = "%"
measurement = -18.9

[[record]]
compound = "O=C(Nc1ccc(Cl)cc1)c1ccc(C(=O)Nc2ccc(Cl)cc2)cc1"
experimental_readout = "growth inhibition"
unit_descriptor = "%"
measurement = -12.9


Problem: Returns the measured growth inhibition for the input compound. Input: Cc1ccc(O)c(C(=O)c2ccccc2C(=O)O)c1
Result: 15

----------
# Method description: NCI Yeast Anticancer Drug Screen. Data for the sgs1 mgt1 strain (AID 161);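 further: 0% = growth of cultures given vehicle only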
# Protocol conditions: S. cerevisiae sgs1 mgt1 strain, at 50.0 µM
The panel holds about 79,000 compounds, 15% with a hit somewhere; the sample as a whole holds those more often. Calls of active or inactive are those of the source. Cut-off read from the data, not from the text of the source: active = growth inhibition above about 70%; inactive = the rest.
Bench note: report the call from 1.0 for active, 0.0 for inactive

Past entries and their recorded results:
[[record]]
compound = "BrCC1OCC2(CO1)COC(CBr)OC2 (stereo unspecified)"
assigned_label = 0.0

[[record]]
compound = "CC1(C)OC(=O)C(=Cc2ccc(O)cc2)C(=O)O1"
assigned_label = 0.0


Problem: Give the logged outcome of this assay for the following compound: CC1(C)CCC(C)(C)C1C(=O)NC(O)C(=O)O (stereo unspecified)
Result: 0.0

Problem: Give the logged outcome of this assay for the following compound: CCOC(CN=Cc1ccc2c(c1)Sc1ccccc1O2)OCC
Result: 1.0

Problem: Give the logged outcome of this assay for the following compound: O=C1/C(=C/c2ccc(O)c(O)c2)CC/C1=C\c1ccc(O)c(O)c1
Result: 0.0

Problem: Give the logged outcome of this assay for the following compound: CCCCCCCC/C=C/CCCCCCCC(=O)O
Result: 0.0

----------
# Method description: NCI Yeast Anticancer Drug Screen. Data for the sgs1 mgt1 strain (AID 161);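 further: 0% = growth of cultures given vehicle only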
# Protocol conditions: S. cerevisiae sgs1 mgt1 strain, at 50.0 µM, active compounds read high
About 79,000 compounds went through this panel and 15% of them were active in at least one assay; those are over-represented in the sample as a whole.
Experimental readout: growth inhibition (%)
Give the value, in units of %, as a plain number.

Examples with answers:
[[record]]
cpd_smiles = "COc1ccc(/C=C/C(=N\\NC(=O)c2ccccc2)c2sc(Nc3ccc([N+](=O)[O-])cc3)nc2C)cc1OC"
measurement = 11.1

[[record]]
cpd_smiles = "CC(C)(C)OC(=O)CC(c1ccccc1)c1ccccc1"
measurement = -8.7

[[record]]
cpd_smiles = "Cc1c2c(cc3c(=O)ccn(CCN(C)C)c13)c(=O)ccn2CCN(C)C"
measurement = -11.8


Problem: Returns the measured growth inhibition for the input molecule. Input: Cc1ccc(-c2cn3c(nc4ccccc43)c(C)n2)cc1
Result: 15.3

Problem: Returns the measured growth inhibition for the input molecule. Input: CNC(=O)Nc1ccc(OC)cc1OC
Result: -8.35

Problem: Returns the measured growth inhibition for the input molecule. Input: Cn1c(=O)c2nc3c(=O)n(C)c(=O)n(CC(N)=O)c3nc2n(C)c1=O
Result: 14.9

----------
# Method description: NCI Yeast Anticancer Drug Screen. Data for the cln2 rad14 strain (AID 165);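 further: 0% = growth equal to vehicle treated cultures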
# Protocol conditions: S. cerevisiae cln2 rad14 strain, at 50.0 µM, active compounds read high
Compounds without any hit were thinned out: in the full panel of roughly 79,000, 15% have a hit.
Respond with class 1 for growth inhibition values of -10% and above, class 0 for values below.

Past entries and their recorded results:
[[record]]
compound = "Cn1cnnc1Sc1c([N+](=O)[O-])ncn1C"
assigned_label = "class 1"

[[record]]
compound = "COc1cccc(N=N/C(=N/NC(=O)c2cc(Cl)ccc2O)c2ccc(N(CCC#N)CCC#N)cc2C)c1"
assigned_label = "class 0"

[[record]]
compound = "C[n+]1cccc2cc(Br)ccc21"
assigned_label = "class 1"

[[record]]
compound = "CCCc1n[nH]c(=S)n1N1C(=S)NC(C)(C)C=C1C"
assigned_label = "class 0"

[[record]]
compound = "Cc1cc(C)c(S(=O)(=O)O)c(Cc2ccccc2)c1"
assigned_label = "class 0"

[[record]]
compound = "CC(O)C1OC(n2cnc3c(=S)nc[nH]c32)C(O)C1O (stereo unspecified)"
assigned_label = "class 0"

[[record]]
compound = "CCCCCCCN1C(=O)C(O)(c2ccc(C3(O)C(=O)N(CCCCCCC)c4ccccc43)s2)c2ccccc21 (stereo unspecified)"
assigned_label = "class 1"

[[record]]
compound = "O=C(NCCCl)NC(C1CC1)C1CC1"
assigned_label = "class 0"


Problem: Item Cc1ccccc1C(O)(c1nccn1C)c1nccn1C with growth inhibition of -10% or above?
Result: class 1

Problem: Item C/C(O)=C(\C=NC(=S)c1ccncc1)C(=O)Nc1ccccc1C with growth inhibition of -10% or above?
Result: class 1

Problem: Item CNC(=O)SC1=NS(=O)(=O)c2ccc(Cl)cc2N1 with growth inhibition of -10% or above?
Result: class 1

----------
# Method description: NCI Yeast Anticancer Drug Screen. Data for the sgs1 mgt1 strain (AID 161);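 further: 0% = growth of cultures given vehicle only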
# Protocol conditions: S. cerevisiae sgs1 mgt1 strain, at 50.0 µM, active compounds read high
Compounds without any hit were thinned out: in the full panel of roughly 79,000, 15% have a hit.
Listing of recorded growth inhibition by entry.
Give the value, in units of %, as a plain number.

[[record]]
compound = "COC(=O)CCc1onc(Br)c1CCl"
measurement = -7.55

[[record]]
compound = "O=C(O)C1[N-]CCNC1C(=O)O.[O]=[V][OH] (stereo unspecified)"
measurement = -4.6

[[record]]
compound = "COC(=N)c1ncn(Cc2ccccc2)c1N"
measurement = -11.9

[[record]]
compound = "CN1CCC(c2ccccc2)(c2ccccc2)C(O)C1 (stereo unspecified)"
measurement = 13.7

[[record]]
compound = "O=C(Nc1nc(C23CC4CC(CC(C4)C2)C3)cs1)c1cc2cc(Br)cc(Br)c2oc1=O"
measurement = 23.3


Problem: Returns the measured growth inhibition for the input compound. Input: COc1cc(/C=C(\OC(C)=O)c2ccc3c(c2)OCO3)cc(OC)c1OC
Result: 33.2

Problem: Returns the measured growth inhibition for the input compound. Input: COc1cccc(NC(=O)CC(=O)Nc2cccc(OC)c2)c1
Result: -8.4

Problem: Returns the measured growth inhibition for the input compound. Input: C[n+]1cccc2cc(Br)ccc21
Result: -13.2

Problem: Returns the measured growth inhibition for the input compound. Input: Cc1cc2ccccc2c(Br)c1C
Result: 26

Problem: Returns the measured growth inhibition for the input compound. Input: O=C1CC(C(=O)O)CC(=O)CC(C(=O)O)C1 (stereo unspecified)
Result: -10.6

Problem: Returns the measured growth inhibition for the input compound. Input: CC(=O)OC1=CC(=O)N(C(=O)c2ccccc2)C1
Result: -18.6

Problem: Returns the measured growth inhibition for the input compound. Input: N#Cc1c2ccccc2cc2c1ccc1ccccc12
Result: 15.8
